- Tested on: MOLT-4
- METHOD: NCI tumour cell line growth inhibition, 48 h
Active and inactive are the calls of the source. No stated cut-off is given here; in the data, active = GI50 up to about 1.1 µM and inactive = higher.
Possible outcomes: 1 (yes) (active), 0 (no) (inactive)

COMPOUND	ASSIGNED LABEL
ON=C(CC(O)(C(F)(F)Cl)C(F)(F)Cl)CC(O)(C(F)(F)Cl)C(F)(F)Cl	0 (no)
O=C1Nc2ccc(S(=O)(=O)N(CCO)CCO)cc2/C1=C1/Nc2ccccc2C1=O	0 (no)
COc1cc2c(cc1[N+](=O)[O-])C(=O)C(Br)(Br)CCC2	1 (yes)
O=[N+]([O-])c1ccc(NN/N=N/c2ccc(-c3nc4ccccc4s3)cc2)c([N+](=O)[O-])c1	0 (no)
c1ccc2c(c1)CCN2CCc1c[nH]c2ccccc12	0 (no)
N#Cc1nc(CSCc2ccccc2)oc1N	0 (no)
CC1OC(c2ccc3c(OCc4ccccc4)cccc3c2O)CC(OCc2ccccc2)[C@H]1OCc1ccccc1 (some centres not stated)	0 (no)
COc1cc(/C=C\c2ccc(C)cc2)cc(OC)c1OC	1 (yes)
Nc1ccccc1C(=O)CC1OC(=O)c2ccccc21 (configuration not stated)	0 (no)
CCOc1ccc(/N=C\c2ccc3cc(C)ccc3n2)cc1	0 (no)
CSCCC(N)C(=O)NCCNc1ccc(NCCNC(=O)C(N)CCSC)c2c1C(=O)c1ccccc1C2=O (configuration not stated)	1 (yes)
C(/C=N/N=C1NCCCN1)=N\N=C1NCCCN1	0 (no)
CCCC(=O)Nc1ccc2c(c1)CN1C(=O)c3ccccc3C1=N2	0 (no)
N#Cc1c(C#N)c(SSc2c(C#N)c(C#N)c(N)n2-c2ccccc2)n(-c2ccccc2)c1N	0 (no)
NC(=O)Nc1cc(O)ccc1/N=N/c1ccc(S(=O)(=O)Nc2ccccn2)cc1	0 (no)
CC(C)(C)OC(=O)NCC(c1c[nH]c2ccccc12)c1c[nH]c2ccccc12	0 (no)
NC(=O)C(c1ccccc1)N1OC2C(=O)N(c3ccccc3)C(=O)C2C1c1c2ccccc2c(Cl)c2ccccc12 (configuration not stated)	0 (no)
O=C(N/N=C/c1ccc(Cl)cc1)c1ccccc1Nc1ccccc1C(=O)N/N=C/c1ccc(Cl)cc1	0 (no)
COc1cc(-c2c[nH]c3ccccc23)nc(-c2c[nH]c3ccccc23)n1	0 (no)
CN1CCC/C1=C1/C(=O)N(c2ccccc2)N=C1c1ccc[nH]1	0 (no)
Clc1nc(Cl)c(Cl)c(Cl)n1	0 (no)
Cc1c2n(c(=O)[nH]c1=O)C1OC(CO)C(O2)C1N=[N+]=[N-] (configuration not stated)	0 (no)
CC[N+](CC)(CCNCC(N)=O)CC(N)=O	0 (no)
C/C(=N\NC(N)=S)C(CN1CCCCC1)C(C1=C(O)c2ccccc2OC1)c1ccccc1 (configuration not stated)	0 (no)
CC(C)C1CNC(=O)C2(/C=N/C(C(C)C)CNC(=O)C3(/C=N/1)CCCO3)CCCO2 (configuration not stated)	0 (no)
COc1ccc2nc3ccc(OC)cc3c(SCc3ccc([N+](=O)[O-])cc3)c2c1	0 (no)
NS(=O)(=O)c1ccc(NC(=O)Cc2nc3ccccc3s2)cc1	0 (no)
COc1ccc(-c2cc(-c3ccc(Nc4ccnc5cc(C(F)(F)F)ccc45)cc3)nc(N)c2C#N)cc1	0 (no)
O=C(CC(NC(=O)C(F)(F)F)C(=O)O)OCc1ccccc1 (configuration not stated)	0 (no)
O=c1[nH]c2nc3ccccc3c(=O)n2/c1=C/c1ccc(O)cc1	0 (no)
CC1(C)OC2CN(C(=O)OCc3ccccc3)C(CO)C2O1 (configuration not stated)	0 (no)
Cn1cnnc1Sc1c([N+](=O)[O-])nc(-c2ccc([N+](=O)[O-])cc2)n1C	0 (no)
Cc1nc2ccccc2n1COC(Cn1ccnc1)c1ccc(Cl)cc1Cl (configuration not stated)	0 (no)
N#Cc1nc(COCc2ccccc2)oc1N	0 (no)
CCCCCCCC(CC(=O)O)OC(=O)CC(CCCCCCC)OC1OC(C)C(O)C(O)C1OC1OC(C)C(O)C(O)C1O (configuration not stated)	0 (no)
COC(=O)c1c(O)c(C#N)c2[nH]c3ccccc3n2c1=O	0 (no)
Cc1ccc(S(=O)(=O)c2ccsc2NC(=O)C(F)(F)F)cc1	0 (no)
COC(=O)c1c(C(=O)OC)c2cc(C(=O)c3ccccc3)ccn2c1Cl	0 (no)
Cc1ccc(Nc2cc(=O)[nH]c(=S)[nH]2)cc1	0 (no)
COC(=O)C1OC(O[C@H]2CC[C@]3(C)[C@H]4CC=C5[C@@H]6CC(C)(C)CC[C@]6(C(=O)OC)CC[C@@]5(C)[C@]4(C)CC[C@H]3C2(C)C)C(O)C(O)C1O (some centres not stated)	0 (no)
CSc1sc(=S)sc1SC	0 (no)
O=C(O)c1ccc(C2C3C=CC(C3)C2[N+](=O)[O-])cc1 (configuration not stated)	0 (no)
